# Test system: MS2 coat protein
# experiment-notes: apparent KD of MS2 coat protein, switch ON state; designed switch direction (-1 OFF switch, 1 ON switch): 1; higher = weaker reporter binding
# details: FMN input: 0 or 200 uM; Eterna round: R93 (includes R88 designs)
Listed below: apparent KD of MS2 coat protein values for each entry.
measurement-type: apparent KD of MS2 coat protein (nM)

[[record]]
residue_string = "UGGAGACAUGAGGAUCACCCAUGUAGAAGGAUGGGAGGAUAUACAAAGACGAGAGUCAGAGUAGAAGGCCUAGGAG [salish99-ss1-188]"
system_under_test = "MS2 coat protein"
measured_value = 31.3

[[record]]
residue_string = "AGAAGACAUGAGGAUCACCCAUGUGGGAAUAUGGGAGGAUAUACAAAGACGAGAGUCAGAGUAGAAGGCCUAGGUA [salish99-ss1-109]"
system_under_test = "MS2 coat protein"
measured_value = 32.5

[[record]]
residue_string = "AAAUAAAGGACUAAGGAUAUAUCGCAUGACACAUGAGGAUCACCCAUGUGGUAACACAGAGGGUGAUAGAAGGUAGUCCACAAACA [Pariah 6 (MS2 Riboswitches - Same State 2)]"
system_under_test = "MS2 coat protein"
measured_value = 42.8

[[record]]
residue_string = "GGGAGACAUGAGGAUCACCCAUGUGAAAACGUGUCAGGAUAUGUAUGGAAACCAUACUGUACAGAAGGGACUUGUC [Quintus Rammius Martialis]"
system_under_test = "MS2 coat protein"
measured_value = 54.8

